The values you see were collected from PubChem BioAssay (NCI).

Test system: KM12 colon
procedure-details: NCI-60 one-dose screen, 48 h
test-parameters: 10 µM unless noted
This is part of a sample that, as a whole, favours compounds with a hit. Of some 83,000 tested, about 20% had one in any assay. Active and inactive are the calls of the source. Rule for the calls: active = growth percent below 10; inactive = the rest.
Lab note: assign the record to one of True for active, False for inactive

For this molecule, state the assay outcome: CCn1cc(C(=O)NNC(=S)Nc2ccc(C)cc2)c(=O)c2ccc(C)nc21
False

For this molecule, state the assay outcome: CCOC(=O)C#Cc1c(C(=O)OCC)nnn1Cc1ccc([N+](=O)[O-])cc1
False

----------
Catalogue of growth readings, one per entry.
Test system: TK-10 renal
procedure-details: NCI-60 one-dose screen, 48 h (100 = growth as untreated, 0 = no growth, -100 = all killed)
test-parameters: 10 µM unless noted
The panel holds about 83,000 compounds, 20% with a hit somewhere; the sample as a whole holds those more often.
Report the value in % with no unit label.

>>> assay_result("CCN(CC)CCn1c2ccc(OC)cc2c2sc3cc(OC)ccc3c(=O)c21")
49.2
>>> assay_result("C=CCc1c(O)c(C(=O)/C=C/c2ccccc2)c(OC)c2ccoc12")
38.8
>>> assay_result("c1ccc([P+](c2ccccc2)(c2ccccc2)c2ccc3c4ccc([P+](c5ccccc5)(c5ccccc5)c5ccccc5)c5cccc(c6cccc2c63)c54)cc1")
52.2
>>> assay_result("Fc1cnccc1C1CC(c2ccc(N3CCNCC3)cc2)=NN1 (stereo not given)")
123

Record summary for CC(=O)Oc1ccc(/C(=C(\C)c2ccc(Cl)cc2)c2ccc(OCCN3CCCCC3)cc2)cc1 : reported growth = 68.4

----------
Test system: OVCAR-4 ovarian
procedure-details: NCI-60 one-dose screen, 48 h (100 = growth as untreated, 0 = no growth, -100 = all killed)
test-parameters: 10 µM unless noted
Compounds without any hit were thinned out: in the full panel of roughly 83,000, 20% have a hit.
Catalogue of growth readings, one per entry.
Report the value in % with no unit label.

>>> assay_result("COC(CC(F)F)c1cn(S(=O)(=O)c2ccc(C)cc2)c2ccccc12 (stereo not given)")
65.5

Record summary for O=C(CN1C(=O)S/C(=C\c2ccccc2)C1=O)Nc1ncc(Cc2ccccc2Cl)s1 : reported growth = 89.6

Record summary for CCCCNC(=O)Oc1ccc(/C(=C(/C)Cc2ccc(OC)cc2)c2ccc(OCCN(CC)CC)cc2)cc1 : reported growth = 80.3

Record summary for Cc1ccccc1/C=C/C(=O)c1cccc(OCCCCOc2cccc(C(=O)/C=C/c3ccccc3C)c2)c1 : reported growth = 87.1

Record summary for Clc1cccc(Nc2ncnc3ccc(-c4cnc5[nH]ccc5c4)cc23)c1 : reported growth = 85

----------
Tested on: SK-MEL-2 melanoma
procedure-details: NCI-60 one-dose screen, 48 h
test-parameters: 10 µM unless noted
The panel holds about 83,000 compounds, 20% with a hit somewhere; the sample as a whole holds those more often. Active and inactive are the calls of the source. Rule for the calls: active = growth percent below 10; inactive = the rest.
Lab note: assign the record to one of Yes (active), No (inactive)

>>> assigned_category("Nc1c(C(=O)Nc2ccccc2F)sc2nc3c(cc12)CCCC3")
"No"

For this compound, state the assay outcome: NC(=O)c1ccc(-c2c3ccccc3cc3c2ccc2ccccc23)cc1
No

For this compound, state the assay outcome: O=[N+]([O-])c1ccc(O)cc1Br
No

For this compound, state the assay outcome: COc1cc(/C=C2/C=C(c3ccccc3)N(CCc3ccc(S(N)(=O)=O)cc3)C2=O)cc(OC)c1OC
No

For this compound, state the assay outcome: N#CC1=C(N)Oc2c(c(=O)[nH]c3ccc(Cl)cc23)C12C(=O)c1ccccc1C2=O
No

For this compound, state the assay outcome: O=S(=O)(NCCCNc1nccc(-c2c(-c3ccc(F)c(O)c3)nc3occn23)n1)c1ccc(Cl)cc1
No

----------
Catalogue of growth readings, one per entry.
Tested on: EKVX NSCLC
procedure-details: NCI-60 one-dose screen, 48 h (100 = growth as untreated, 0 = no growth, -100 = all killed)
test-parameters: 10 µM unless noted
About 83,000 compounds went through this panel and 20% of them were active in at least one assay; those are over-represented in the sample as a whole.
Report the value in % with no unit label.

>>> assay_result("CCC(C)N(CCNc1cc(OC)cc2cccnc12)CC(C)C (centres undefined)")
95.5

Record summary for COc1ccc(C2CC(c3ccc(Nc4nc(Nc5ccccc5)nc(Nc5ccccc5)n4)cc3)=NN2C(C)=O)cc1 (centres undefined) : reported growth = 132

Record summary for CC(O)(c1ccccc1)C(c1ccccc1)C1CCCCN1 (centres undefined) : reported growth = 104

Record summary for Cc1ccc(-c2nc([P+](c3ccccc3)(c3ccccc3)c3ccccc3)c(S(=O)(=O)c3ccc(C)cc3)o2)cc1 : reported growth = 22.6

----------
System: NCI-H322M lung
procedure-details: NCI-60 one-dose screen, 48 h (100 = growth as untreated, 0 = no growth, -100 = all killed)
test-parameters: 10 µM unless noted
Experimental: Growth inhibition of the NCI-H322M human Non-Small Cell Lung tumor cell line is measured as a screen for anti-cancer activity. Cells are grown in 96 well plates and exposed to the test compound for 48 hours. Compounds are tested at a single concentration, which is 10^-5 M for most compounds. The reported endpoint is percent growth (GI% or GIPRCNT), where numbers from 0 - 100% represent growth inhibition, and numbers from -100% - 0 represent cell death. […]
This is part of a sample that, as a whole, favours compounds with a hit. Of some 83,000 tested, about 20% had one in any assay.
Catalogue of growth readings, one per entry.
Report the value in % with no unit label.

Worked cases, growth given:
>>> assay_result("COc1ccc(F)cc1/C=C/C(=O)/C=C(/C=C/c1cc(F)ccc1OC)OB(F)F")
103
>>> assay_result("Cc1c(-c2ccc(O)cc2)n(Cc2ccc(OCCN3CCCCCC3)cc2)c2ccc(O)cc12")
92.3
>>> assay_result("CC1(C)CC(=O)C2=C(C1)N(c1ccc(OC(F)(F)F)cc1)C(N)=C(C#N)C2c1ccc(Br)cc1F (centres undefined)")
59.1
>>> assay_result("Cc1ccc2c(n1)C(=O)C(Br)=C(C1CCCC1)C2=O")
100
>>> assay_result("CCN(CC)CCn1c2ccc(O)cc2c2sc3cc(O)ccc3c(=O)c21")
30
>>> assay_result("COCCOc1cc2ncnc(N3CCN(c4ncc(S(=O)(=O)N5CCCCC5)cn4)CC3)c2cc1OCCOC")
96.5

Record summary for CCOC(=O)c1nn(-c2ccc(S(N)(=O)=O)cc2)c2nc(C)cc(=O)n12 : reported growth = 102

Record summary for O=C(/C=C/c1ccccc1)Nc1ncc(Cc2ccccc2Cl)s1 : reported growth = 33.8

Record summary for O=C(CSc1nc2ccc([N+](=O)[O-])cc2[nH]1)Nc1ccc([N+](=O)[O-])cc1 : reported growth = 43.9

Record summary for COc1cc2c(cc1OCCCN1CCN(CCCOc3cc4c(cc3OC)C(=O)N3CC(F)(F)C[C@H]3C=N4)CC1)N=C[C@@H]1CC(F)(F)CN1C2=O : reported growth = 97.9

Record summary for O=C1/C(=C\c2ccc3nccnc3c2)SC(=S)N1CCc1ccc(O)cc1 : reported growth = 103

Record summary for O=[N+]([O-])c1cccc(-c2nc3cc4nc5ccccc5[nH]c4cc3n2)c1 : reported growth = 97.7

Record summary for CSc1nc2ccccc2cc1/C=C1/C=C(c2ccccc2)NC1=O : reported growth = 93

Record summary for C1CCC([PH+](C2CCCCC2)C2CCCCC2[PH+](C2CCCCC2)C2CCCCC2)CC1.[Au].[CH-]1CCCCC1C1CCCC[N-]1 (centres undefined) : reported growth = -52

Record summary for CCN1CCN(C(=O)[C@]23CCC(C)(C)C[C@@H]2C2=CC[C@@H]4[C@@]5(C)CCC(=O)C(C)(C)[C@@H]5CC[C@@]4(C)[C@]2(C)CC3)CC1 : reported growth = 81.2

Record summary for N#CSCC1CC(O)(c2ccccc2)CC(c2ccc(F)cc2)O1 (centres undefined) : reported growth = 50.9

Record summary for C=CCSc1nnc(NC(=O)CCl)s1 : reported growth = 101

Record summary for NC(=O)c1cccc(-n2ccc3cc(NC(=O)c4ccc(N5CCOCC5)c(C(F)(F)F)c4)ccc32)n1 : reported growth = 57.1

Record summary for Cc1cc(=O)oc2cc(OCc3nn4c(Nc5nc6ccccc6s5)c(-c5ccccc5)nc4s3)ccc12 : reported growth = 90.7

----------
System: HOP-92 NSCLC
procedure-details: NCI-60 one-dose screen, 48 h
test-parameters: 10 µM unless noted
The panel holds about 83,000 compounds, 20% with a hit somewhere; the sample as a whole holds those more often. Calls of active or inactive are those of the source. The calls were made as follows: active = growth percent below 10; inactive = the rest.
Lab note: assign the record to one of active, inactive

A selection of reference data follows.
>>> assigned_category("c1ccc([P+](c2ccccc2)(c2ccccc2)c2ccc3c4ccc([P+](c5ccccc5)(c5ccccc5)c5ccccc5)c5cccc(c6cccc2c63)c54)cc1")
"active"
>>> assigned_category("Cc1c(-c2ccc(O)cc2)n(Cc2ccc(OCCN3CCCCCC3)cc2)c2ccc(O)cc12")
"inactive"
>>> assigned_category("Fc1cc2c(cc1Cl)N(c1ncnc3ccc(-c4ccc5n[nH]nc5c4)cc13)CC2")
"inactive"
>>> assigned_category("CC(C)c1ccc(Cc2cnc(NC(=O)c3cc(Br)cs3)s2)cc1")
"inactive"
>>> assigned_category("O=S(=O)(Nc1ccc(Cl)c(C(F)(F)F)c1)c1ccc(-c2cnc(C3CC3)o2)cc1")
"active"

Please turn your attention to the following entry.
For this compound, state the assay outcome: COc1ccc(CNc2c3ccccc3nc3ccccc23)cc1
inactive
